Provenance of the data: patent US10981932B2

- test_target: MCL-1 (Homo sapiens)
- Sequence (Q07820 whole entry): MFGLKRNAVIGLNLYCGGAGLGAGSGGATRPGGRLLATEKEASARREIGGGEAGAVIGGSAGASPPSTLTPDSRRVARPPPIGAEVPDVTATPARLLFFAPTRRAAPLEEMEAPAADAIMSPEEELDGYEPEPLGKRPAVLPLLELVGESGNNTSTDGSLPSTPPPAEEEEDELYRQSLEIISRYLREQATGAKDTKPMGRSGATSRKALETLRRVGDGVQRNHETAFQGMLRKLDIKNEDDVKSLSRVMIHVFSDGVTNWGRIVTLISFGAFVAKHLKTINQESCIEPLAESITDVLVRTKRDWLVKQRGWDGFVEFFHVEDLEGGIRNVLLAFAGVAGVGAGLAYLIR
- assay_summary: Protein-protein interaction assay MCL-1/Noxa BH3 peptide (MCL-1 assay), TR-FRET
- Assay type: binding
- condition_info: MBP-MCL-1 / Noxa BH3-derived peptide, median
Label T when IC50 is strictly below 10 nM; otherwise label F.

Quick check: does Cc1cc(OCCCc2c(C(=O)O)n3c4c(cccc24)-c2c(C)nn(C)c2COCCCC3)cc(C)c1Cl (single isomer, unassigned; enantiomer 1) [Example 010] have IC50 under 10 nM?
T

Quick check: does COCCn1nc(C2CC2)c2c1COCCCCn1c(C(=O)O)c(CCCOc3cccc4c3CCCC4)c3cccc-2c31 (racemic) [Example 164] have IC50 under 10 nM?
F

Quick check: does CCc1c2c(nn1C)COCCCCn1c(C(=O)O)c(CCCOc3cccc4cc(F)ccc34)c3cccc-2c31 (racemic) [Example 281] have IC50 under 10 nM?
T

Quick check: does CN1CCCn2c(C(=O)O)c(CCCOc3cccc4ccccc34)c3cccc(c32)-c2c(CN3CCOCC3)nn(C)c2C1 (racemic) [Example 1-42] have IC50 under 10 nM?
F

Quick check: does Cc1nn(C)c2c1-c1cccc3c(CCCOc4cccc5cc(F)ccc45)c(C(=O)O)n(c13)CCCCOC2 (single isomer, unassigned; enantiomer 2) [Example 020] have IC50 under 10 nM?
F

Continuing:
Quick check: does CCc1nn(C)c2c1-c1cccc3c(CCCOc4cccc5c(F)cccc45)c(C(=O)O)n(c13)CCCCOC2 (racemic) [Example 298] have IC50 under 10 nM?
T

Quick check: does Cc1nn(CC(F)(F)F)c2c1-c1cccc3c(CCCOc4cccc5ccccc45)c(C(=O)O)n(c13)CCCCOC2 (single isomer, unassigned; enantiomer 1) [Example 110] have IC50 under 10 nM?
F

====

- Test system: MV-4-11
- assay_summary: Anti-proliferative effect (CellTiter-Glo, 72 h), MV-4-11
- Assay type: cell-based
- condition_info: MV-4-11 cells, median, read-out: IC50 antiproliferation assay MV-4-11 [M] (median)
experimental_readout: IC50 (M)
Express the result in M but write the number alone.

Jot down IC50 (MV-4-11) of Cc1ccc2c(CCCOc3cccc4cc(F)ccc34)c(C(=O)O)n3c2c1-c1c(nn(CCN2CCOCC2)c1C)COCCCC3 (single isomer, unassigned) [Example 293] .
2.08e-06

Jot down IC50 (MV-4-11) of Cc1ccc2c(C(C)CCOc3cccc4cc(F)ccc34)c(C(=O)O)n3c2c1-c1c(nn(C)c1C)COCCCC3 (single isomer, unassigned) [Example 279] .
1.57e-05

Jot down IC50 (MV-4-11) of Cc1ccc2c(C(C)CCOc3cccc4cc(F)ccc34)c(C(=O)O)n3c2c1-c1c(nn(C)c1C)COCCCC3 (single isomer, unassigned) [Example 278] .
1.49e-05

Jot down IC50 (MV-4-11) of Cn1nc2c(c1CN1CCOCC1)-c1cccc3c(CCCOc4cccc5ccccc45)c(C(=O)O)n(c13)CCCCOC2 (single isomer, unassigned; enantiomer 1) [Example 079] .
2.37e-06

Next:
Jot down IC50 (MV-4-11) of CN1CCCCn2c(C(=O)O)c(CCCOc3cccc4ccccc34)c3cccc(c32)-c2c(/C=C/F)nn(C)c2C1 (single isomer, unassigned) [Example 227] .
1.66e-05
